# System: SNB-19 CNS
# ASSAY COMMENT: NCI-60 one-dose screen, 48 h (100 = growth as untreated, 0 = no growth, -100 = all killed)
# TEST SETTINGS: 10 µM unless noted
Compounds without any hit were thinned out: in the full panel of roughly 83,000, 20% have a hit.
Entry flag: MET if growth reaches 90%; NOT MET if it does not.

Given the entry N#Cc1ccc(NC(=O)Nc2ccc(Oc3ccc(NC(=O)Nc4ccc(C#N)cc4)cc3)cc2)cc1 , answer whether its growth meets or surpasses 90%.
NOT MET

Given the entry COc1ccc(-c2nn(-c3ccccc3)cc2/C=C2\SC(=S)N(CCc3ccc(O)cc3)C2=O)cc1 , answer whether its growth meets or surpasses 90%.
MET

Given the entry O=C(Nc1ccc(C2=NCCCN2)cc1)Nc1ccc(C2=NCCCN2)cc1 , answer whether its growth meets or surpasses 90%.
MET

Given the entry Cc1cc(C(C)(C)C)cc(C)c1CC1=NCCN1 , answer whether its growth meets or surpasses 90%.
MET

Given the entry Cn1c(N)c(N=O)c(=O)[nH]c1=O , answer whether its growth meets or surpasses 90%.
MET

Given the entry Cc1ccc(NC(=O)COC(=O)c2ccc(S(=O)(=O)N3CCCCCC3)cc2)cc1 , answer whether its growth meets or surpasses 90%.
NOT MET

Given the entry Cc1nc(N)[nH]c(=O)c1C , answer whether its growth meets or surpasses 90%.
MET

Given the entry Oc1[nH]c2ccc(Cl)cc2c1/C=c1/ccc2c(c1)N=C(c1ccc(C(F)(F)F)cc1)N=2 , answer whether its growth meets or surpasses 90%.
NOT MET

Given the entry Cc1cc(C)c(OC(=O)CSc2nc3ccccc3c(=O)n2CCc2ccccc2)cc1C , answer whether its growth meets or surpasses 90%.
MET

----------
# Tested on: OVCAR-8 ovarian
# ASSAY COMMENT: NCI-60 one-dose screen, 48 h
# TEST SETTINGS: 10 µM unless noted
About 83,000 compounds went through this panel and 20% of them were active in at least one assay; those are over-represented in the sample as a whole. The source made the active and inactive calls. The calls were made as follows: active = growth percent below 10; inactive = the rest.
Answer with one of the outcomes given here: true = active, false = inactive

Which outcome was entered for the compound O=C(CCc1nnc2sc(-c3ccc(Cl)cc3Cl)nn12)c1nc2ccccc2[nH]1 in this test?
true

Which outcome was entered for the compound O=C1C[C@@H]2/C(=C(O)\C=C\c3ccccc3)C(=O)C=C[C@@H]2O1 in this test?
true

Which outcome was entered for the compound COc1cccc(/C=C2\COc3ccc(O)c(O)c3C2=O)c1OC in this test?
false

Which outcome was entered for the compound COc1ccc(-c2nc3sccn3c2-c2ccnc(S(C)(=O)=O)n2)cc1 in this test?
false

Which outcome was entered for the compound COc1ccc(OC)c2c1[nH]c(=O)c1c3ccccc3cn21 in this test?
true

Which outcome was entered for the compound C=C(C)[C@H]1CC/C(C)=C/CC[C@]2(C)O[C@H]2CC/C(C=O)=C\C1O (stereo partly drawn) in this test?
false

Which outcome was entered for the compound CCC(C)(C)C(=O)O[C@H]1C[C@@H](C)C=C2C=C[C@H](C)[C@H](CC[C@@H]3C[C@@H](O)CC(=O)O3)[C@H]21 in this test?
false

Which outcome was entered for the compound COc1ccc2c(c1)C(=O)c1c-2c(OCCCN(C)C)nc2cc(Br)ccc12 in this test?
true

Which outcome was entered for the compound CC(=O)Oc1ccc(C23c4ccccc4C2(OC(C)=O)c2cc(OC(C)=O)ccc23)cc1 (stereo not drawn) in this test?
false

Which outcome was entered for the compound O=C(c1ccccc1)c1ccco1 in this test?
false

Which outcome was entered for the compound CCC(CC)NCCCCCNc1cc(OC)cc2cccnc12 in this test?
false

Which outcome was entered for the compound O=C(c1ccccc1)c1ccccc1Cl in this test?
false

Which outcome was entered for the compound O=C(Nc1nc(-c2ccccc2)cs1)c1cc(O)c(O)c(O)c1 in this test?
false

Which outcome was entered for the compound O=C(/C=C/c1cc2ccccc2[nH]c1=O)c1ccc(Cl)cc1 in this test?
false

Which outcome was entered for the compound CC(=O)n1c2ccccc2c2ccccc21 in this test?
false

Which outcome was entered for the compound O=C1CC(C(F)(F)F)=NN1C(=O)c1nn(-c2ccc(Cl)cc2)cc1O in this test?
false

Which outcome was entered for the compound c1cnc2ccc3ncccc3c2c1 in this test?
false

Which outcome was entered for the compound O=[N+]([O-])c1ccc(N/N=C\c2ccccc2[N+](=O)[O-])nc1 in this test?
false

Which outcome was entered for the compound CCCCSc1cc(C)nc(N)n1 in this test?
false

Which outcome was entered for the compound CCCCCCCCCCCCNc1ncnc2[nH]ncc12 in this test?
false

Which outcome was entered for the compound O=C(C(=O)N1CCOCC1)c1ccc(OC2OC(CO)C(O)C(O)C2O)cc1 (stereo not drawn) in this test?
false

Which outcome was entered for the compound C=C(C)[C@H]1CC/C(C)=C/CC[C@]2(C)O[C@H]2CC/C(COC(C)=O)=C\C1=O in this test?
false

Which outcome was entered for the compound NCCCc1nnc(CCC(=O)c2nc3ccccc3[nH]2)o1 in this test?
false

----------
# System: CCRF-CEM leukemia
# ASSAY COMMENT: NCI-60 one-dose screen, 48 h (100 = growth as untreated, 0 = no growth, -100 = all killed)
# TEST SETTINGS: 10 µM unless noted
# Procedure: Growth inhibition of the CCRF-CEM human tumor cell line is measured as a screen for anti-cancer activity. Cells are grown in 96 well plates and exposed to the test compound for 48 hours. Compounds are tested at a single concentration, which is 10^-5 M for most compounds. The reported endpoint is percent growth (GI% or GIPRCNT), where numbers from 0 - 100% represent growth inhibition, and numbers from -100% - 0 represent cell death. For example, a value of 40 represents 60% growth inhibition. […]
This is part of a sample that, as a whole, favours compounds with a hit. Of some 83,000 tested, about 20% had one in any assay.
Answer each item with its documented growth.
Note: unit % is implicit; provide only the numeric part.

growth for CCc1[nH]nc(-c2ccc(OC)cc2)c1-c1ccccc1OCCN(CC)CC ?
84.5

growth for O=C(C(Br)Br)C(Br)C(Br)c1ccccc1 (configuration not stated) ?
14.8

growth for O=C(/C=C/c1ccc(Cl)cc1)c1ccccc1 ?
87.9

growth for C/C(=C\CCc1ccoc1)CC/C=C(\C)CCCN1CCC(CO)CC1 ?
37.9

growth for COc1ccc(C(=O)C(C)Br)cc1OC (configuration not stated) ?
26.7

growth for Cc1ccc2c(c1)C(=O)/C(=C/c1ncc([N+](=O)[O-])n1C)O2 ?
0.686

growth for Cn1cc(-c2csc(-c3c[nH]c4ncccc34)n2)c2cc(F)cnc21 ?
66.1

growth for O=[N+]([O-])c1cnc(Sc2ccncn2)c([N+](=O)[O-])c1 ?
-49.2

growth for CC(CCC(=O)O)(NC(=O)c1ccc([N+](=O)[O-])cc1)C(=O)O (configuration not stated) ?
103

growth for CSc1ccc2c(c1)N(CCC1CCCCN1C)c1ccccc1S2 (configuration not stated) ?
35.3

growth for NC(=O)c1ccccc1NC(=O)c1ccccc1Cl ?
97.3

growth for CSc1nnc(C2=CC(=O)c3ccccc3C2=O)n1-c1ccccc1 ?
36.8

----------
# Tested on: NCI-H460 lung
# ASSAY COMMENT: NCI-60 one-dose screen, 48 h (100 = growth as untreated, 0 = no growth, -100 = all killed)
# TEST SETTINGS: 10 µM unless noted
Compounds without any hit were thinned out: in the full panel of roughly 83,000, 20% have a hit. The source made the active and inactive calls. How the source made its calls: active means growth percent below 10; inactive means the rest.
OBSERVATION TYPE: growth

growth for CCC(c1ccccc1)c1noc(CCN(CC)CC)n1 (stereo unspecified) ?
103% (inactive)

growth for Cc1cc(C(C)(C)C)cc(C)c1CC1=NCCN1 ?
118% (inactive)

growth for CCCCCCCC/C=C\CCCCCCCCOc1ccccc1CC(=O)NCC[N+]1(C)CCCC1 ?
52.2% (inactive)

growth for CCOc1cc(C(C)(C)C)ccc1C1=N[C@H](c2ccc(Cl)cc2)[C@H](c2ccc(Cl)cc2)N1C(=O)N1CCN(CC#Cc2cccc3c2CN([C@@H]2CCC(=O)NC2=O)C3=O)CC1 ?
24.2% (inactive)

growth for Clc1ccccc1[C@@H]1C[C@@H]2Cc3cc(Br)c4ccccc4c3N1O2 ?
18.1% (inactive)

growth for C[n+]1ccc(C#N)c2ccccc21 ?
109% (inactive)

growth for COc1ccc(-c2cc(Cc3cccs3)c(=O)n(Cn3cncn3)n2)cc1 ?
112% (inactive)

growth for CCC1=C(c2ccc(OC)cc2)C(C)(C)Oc2cc(O)c(CN3CCCC3)cc21 ?
86.6% (inactive)

growth for c1cncc(CNc2ccccc2-c2nnc(Nc3ccc4c(c3)OCO4)o2)c1 ?
9.93% (active)

growth for CC1SC(c2c(Cl)cccc2Cl)N(NC(=O)c2[nH]c3ccc(F)cc3c2-c2ccccc2)C1=O (stereo unspecified) ?
8.08% (active)

growth for COc1ccc2c(c1)C(=O)c1c-2c(OCCN(C)C)nc2cc(OC)ccc12 ?
-70.7% (active)

growth for COc1cc2c(-c3nc4cc(Cl)c(F)cc4s3)cc(=O)oc2c(C)c1OC ?
-36.1% (active)

growth for COc1ccc(CCN2CCCN3C2=Nc2ccccc2S3(=O)=O)cc1 ?
13.4% (inactive)

growth for Oc1ccc(-c2nn(-c3ccccc3)cc2-c2nc3ccccc3s2)cc1 ?
91.3% (inactive)

growth for NNC(=O)C1CC2c3ccccc3C1c1ccccc12 (stereo unspecified) ?
115% (inactive)

growth for CCc1ccc(CCN2C(=O)c3ccccc3C2=O)nc1 ?
103% (inactive)

growth for Cc1cc(NC(=O)Nc2cc(Cl)ccc2C)no1 ?
102% (inactive)

growth for COc1ccc(C2CC(c3cccc(Nc4ccnc5cc(Cl)ccc45)c3)=NN2C=O)cc1 (stereo unspecified) ?
11.2% (inactive)

growth for O=C(/C=C/c1ccccc1Cl)c1ccc(O)cc1 ?
93.8% (inactive)

growth for OC(Cc1cccnc1)c1ccccc1 (stereo unspecified) ?
98% (inactive)

growth for CCC(C)(C)C(=O)O[C@H]1C[C@@H](C)C=C2C=C[C@H](C)[C@H](CC[C@@H]3C[C@@H](O)CC(=O)O3)[C@H]21 ?
24.3% (inactive)
